These entries and their values trace back to patent US7074789B2.

- ASSAY_TARGET: PDGFRB (Homo sapiens, UniProt P09619)
- Construct: Kinases are expressed as either kinase domains or full length constructs; made in house
- Sequence (P09619 33-1106, species assumed): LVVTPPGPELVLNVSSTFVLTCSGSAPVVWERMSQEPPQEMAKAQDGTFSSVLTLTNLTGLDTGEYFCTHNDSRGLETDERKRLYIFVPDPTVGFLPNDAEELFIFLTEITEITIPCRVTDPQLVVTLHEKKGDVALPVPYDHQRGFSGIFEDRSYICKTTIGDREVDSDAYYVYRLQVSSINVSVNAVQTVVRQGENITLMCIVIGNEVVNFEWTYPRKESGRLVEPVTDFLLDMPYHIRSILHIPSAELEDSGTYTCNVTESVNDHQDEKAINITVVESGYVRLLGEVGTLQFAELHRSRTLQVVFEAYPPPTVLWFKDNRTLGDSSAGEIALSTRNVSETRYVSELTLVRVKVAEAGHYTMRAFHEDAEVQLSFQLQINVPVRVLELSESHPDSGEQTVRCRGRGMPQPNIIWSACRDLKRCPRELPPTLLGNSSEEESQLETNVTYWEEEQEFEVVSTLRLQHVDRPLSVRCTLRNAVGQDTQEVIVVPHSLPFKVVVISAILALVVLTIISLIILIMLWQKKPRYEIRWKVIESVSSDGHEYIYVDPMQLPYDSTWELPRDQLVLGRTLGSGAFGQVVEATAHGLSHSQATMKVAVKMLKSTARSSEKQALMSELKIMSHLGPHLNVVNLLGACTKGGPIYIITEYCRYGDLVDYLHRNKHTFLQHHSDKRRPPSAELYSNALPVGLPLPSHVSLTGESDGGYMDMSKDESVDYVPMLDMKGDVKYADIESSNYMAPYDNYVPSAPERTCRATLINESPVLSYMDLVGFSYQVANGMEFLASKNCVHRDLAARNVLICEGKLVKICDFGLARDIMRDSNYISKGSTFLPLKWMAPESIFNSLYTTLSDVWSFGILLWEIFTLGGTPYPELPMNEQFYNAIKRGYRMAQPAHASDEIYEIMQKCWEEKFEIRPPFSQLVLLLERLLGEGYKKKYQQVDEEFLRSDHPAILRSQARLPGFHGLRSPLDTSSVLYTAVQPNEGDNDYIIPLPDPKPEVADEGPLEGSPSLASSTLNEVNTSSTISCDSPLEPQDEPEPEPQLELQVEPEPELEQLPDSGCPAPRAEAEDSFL
- TEST_PROTOCOL: Kinase inhibition assay (33P transfer), PDGFRB
- Type: biochemical
- CONDITION_SET: read-out: PDGFRB-1
pIC50: −log10 of the molar value.
The entries below are paired with their reported pIC50.

Completed entries (count: 3):
{"STRUCTURE": "COc1cc(Nc2ncnc(N3CCCc4ccc(C(F)(F)F)cc43)n2)cc(OC)c1OC", "pIC50": "< 5.01"}
{"STRUCTURE": "COc1cc(Nc2ncnc(Nc3ccc(O)cc3)n2)cc(OC)c1OC", "pIC50": "> 5.97"}
{"STRUCTURE": "COC(=O)c1sccc1Nc1ncnc(Nc2cc(OC)c(OC)c(OC)c2)n1", "pIC50": "5.24 to 6.02"}

pIC50 value, target or system PDGFRB (Homo sapiens, UniProt P09619), for `COc1cc(Nc2ncnc(Nc3ccc(Br)c(Cl)c3)n2)cc(OC)c1OC` : > 6.07

pIC50 value, target or system PDGFRB (Homo sapiens, UniProt P09619), for `COc1cc(Nc2ncnc(-c3ccnc(NCCCO)c3)n2)cc(OC)c1OC` : 4.96 to 5.07

----------
- ASSAY_TARGET: Lck (Homo sapiens)
- Construct: Kinases are expressed as either kinase domains or full length constructs; made in house
- Sequence (P06239 whole entry, species assumed, the tested form may be a part): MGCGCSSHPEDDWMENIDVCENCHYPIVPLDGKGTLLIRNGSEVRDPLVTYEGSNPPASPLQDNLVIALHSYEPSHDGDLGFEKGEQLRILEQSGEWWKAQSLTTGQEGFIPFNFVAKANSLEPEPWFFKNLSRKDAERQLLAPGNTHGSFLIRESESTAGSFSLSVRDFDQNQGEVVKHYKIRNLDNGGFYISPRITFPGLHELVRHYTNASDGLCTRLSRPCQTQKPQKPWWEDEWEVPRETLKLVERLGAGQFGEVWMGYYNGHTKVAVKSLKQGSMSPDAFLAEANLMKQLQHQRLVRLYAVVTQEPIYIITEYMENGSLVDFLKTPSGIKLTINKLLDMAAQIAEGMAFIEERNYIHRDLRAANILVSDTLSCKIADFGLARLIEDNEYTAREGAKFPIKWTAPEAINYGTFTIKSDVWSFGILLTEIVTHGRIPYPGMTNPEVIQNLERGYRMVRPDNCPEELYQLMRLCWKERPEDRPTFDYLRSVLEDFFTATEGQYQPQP
- TEST_PROTOCOL: Kinase inhibition assay (33P transfer), Lck
- Assay type: biochemical
- CONDITION_SET: Table 3; read-out: Lck-1
pIC50: −log10 of the molar value.
The entries below are paired with their reported pIC50.

Completed entries (count: 3):
{"COMPOUND": "Clc1cccc(Nc2ncnc(-c3cccs3)n2)c1 [Compound 360]", "ASSAY_TARGET": "Lck (Homo sapiens)", "pIC50": "< 4.81"}
{"COMPOUND": "COc1cc(Nc2ncnc(Nc3ccc(N(C)C(C)=O)cc3)n2)cc(OC)c1OC [Compound 81]", "ASSAY_TARGET": "Lck (Homo sapiens)", "pIC50": "5.25 to 6.03"}
{"COMPOUND": "CCOc1ccc(Nc2ncnc(Nc3ccc(OCc4ccccc4)cc3)n2)cc1OCC [Compound 170]", "ASSAY_TARGET": "Lck (Homo sapiens)", "pIC50": "< 5.01"}

pIC50 recorded for this compound, COc1cc(Nc2ncnc(N3CCC(O)CC3)n2)cc(OC)c1OC [Compound 208] , is < 4.90

pIC50 recorded for this compound, COc1cc(Nc2ncnc(Nc3cc(-c4ccco4)n[nH]3)n2)cc(OC)c1 [Compound 365] , is 5.20 to 5.98

pIC50 recorded for this compound, COc1cc(Nc2ncnc(-c3ccnc(Cl)c3)n2)cc(OC)c1OC [Compound 331] , is < 4.92

pIC50 recorded for this compound, COc1cc(Nc2ncnc(-n3c(NCC(N)=O)nc4ccccc43)n2)cc(OC)c1OC [Compound 389] , is < 5.00

pIC50 recorded for this compound, COc1cc(Nc2ncnc(N3CCN(C(=O)OC(C)(C)C)CC3)n2)cc(OC)c1OC [Compound 211] , is < 5.00

----------
The entries below are paired with their reported pIC50.
- ASSAY_TARGET: Kdr (Homo sapiens, UniProt P35968)
- Construct: Kinases are expressed as either kinase domains or full length constructs; made in house
- Sequence (P35968 20-1356, species assumed): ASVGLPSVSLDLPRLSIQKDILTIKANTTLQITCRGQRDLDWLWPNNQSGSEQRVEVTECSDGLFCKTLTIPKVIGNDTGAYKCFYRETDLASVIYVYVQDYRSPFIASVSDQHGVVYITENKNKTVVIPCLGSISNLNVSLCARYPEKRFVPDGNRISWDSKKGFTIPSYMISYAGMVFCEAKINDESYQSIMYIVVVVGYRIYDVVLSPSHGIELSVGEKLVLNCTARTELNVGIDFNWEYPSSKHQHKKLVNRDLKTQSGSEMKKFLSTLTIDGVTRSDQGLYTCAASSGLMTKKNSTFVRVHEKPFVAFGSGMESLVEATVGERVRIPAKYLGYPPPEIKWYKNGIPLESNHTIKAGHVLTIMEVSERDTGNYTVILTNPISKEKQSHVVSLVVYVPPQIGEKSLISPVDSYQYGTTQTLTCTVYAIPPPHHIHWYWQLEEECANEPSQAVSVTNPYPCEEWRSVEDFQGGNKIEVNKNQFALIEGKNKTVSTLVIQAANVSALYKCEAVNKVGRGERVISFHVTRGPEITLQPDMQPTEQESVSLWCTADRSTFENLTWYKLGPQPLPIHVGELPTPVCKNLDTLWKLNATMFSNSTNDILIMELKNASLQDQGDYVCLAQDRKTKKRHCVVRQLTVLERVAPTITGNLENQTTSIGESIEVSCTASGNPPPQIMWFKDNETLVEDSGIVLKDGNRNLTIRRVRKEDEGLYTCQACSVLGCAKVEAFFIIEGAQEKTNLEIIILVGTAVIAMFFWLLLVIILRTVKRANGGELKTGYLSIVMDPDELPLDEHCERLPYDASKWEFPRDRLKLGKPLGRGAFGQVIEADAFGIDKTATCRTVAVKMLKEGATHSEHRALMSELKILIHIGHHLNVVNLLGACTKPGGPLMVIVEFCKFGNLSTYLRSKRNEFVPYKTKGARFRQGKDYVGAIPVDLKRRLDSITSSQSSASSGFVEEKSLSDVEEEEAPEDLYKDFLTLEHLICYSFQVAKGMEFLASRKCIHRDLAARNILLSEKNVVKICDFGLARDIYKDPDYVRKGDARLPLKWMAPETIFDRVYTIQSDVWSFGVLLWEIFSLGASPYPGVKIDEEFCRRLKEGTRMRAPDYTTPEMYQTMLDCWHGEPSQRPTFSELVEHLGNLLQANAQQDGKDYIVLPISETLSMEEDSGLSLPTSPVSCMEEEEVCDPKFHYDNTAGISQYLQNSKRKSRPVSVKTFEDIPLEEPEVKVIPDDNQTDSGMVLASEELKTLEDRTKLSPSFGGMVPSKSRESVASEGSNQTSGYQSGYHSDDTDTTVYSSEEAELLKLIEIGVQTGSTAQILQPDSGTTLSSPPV
- TEST_PROTOCOL: Kinase inhibition assay (33P transfer), Kdr
- Assay type: biochemical
- CONDITION_SET: Table 3, class symbols; read-out: KDR-1
pIC50: −log10 of the molar value.

{"COMPOUND": "COc1ccc(Nc2ncnc(N(C)CCc3ccccn3)n2)cc1OC [Compound 869]", "REPORTED_VALUE": "4.91 to 5.02"}
{"COMPOUND": "COC(=O)c1ccc(-c2cc(Nc3ncnc(NCCc4ccc(OC)cc4)n3)[nH]n2)cc1 [Compound 817]", "REPORTED_VALUE": "< 5.00"}
{"COMPOUND": "CN(c1cccc(Cl)c1)c1ncnc(Nc2ccc3nn(Cc4ccccc4)cc3c2)n1 [Compound 673]", "REPORTED_VALUE": "5.10 to 5.27"}
{"COMPOUND": "Clc1cccc(Nc2ncnc(Nc3ccc4[nH]ncc4c3)n2)c1 [Compound 134]", "REPORTED_VALUE": "> 5.93"}
{"COMPOUND": "COc1cc(Nc2ncnc(-c3cccnc3Nc3ccc(C(F)(F)F)cc3)n2)cc(OC)c1OC [Compound 835]", "REPORTED_VALUE": "< 5.04"}
{"COMPOUND": "COc1cc(Nc2ncnc(-c3cccnc3NC3CCCCC3)n2)cc(OC)c1OC [Compound 848]", "REPORTED_VALUE": "> 6.04"}

pIC50 recorded for this compound, O=C(O)CCc1cccc(Nc2ncnc(Nc3cc(-c4ccco4)[nH]n3)n2)c1 [Compound 887] , is > 5.99

pIC50 recorded for this compound, COc1cc(Nc2ncnc(-c3cccnc3Nc3cccc(C#N)c3)n2)cc(OC)c1OC [Compound 828] , is < 5.01

pIC50 recorded for this compound, COC(=O)c1ccc(-c2cc(Nc3ncnc(NCCN4CCNC4=O)n3)[nH]n2)cc1 [Compound 820] , is < 4.97

pIC50 recorded for this compound, COc1ccc(Nc2ncnc(N(C)[C@H](C)c3ccccc3)n2)cc1OC [Compound 803] , is < 4.91
